System: YAL060W
ASSAY PROCEDURE: TOR pathway GFP reporter clone modulation in yeast – S. cerevisiae, GFP-tagged clone panel, flow cytometry (AID 504473);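 further: median GFP fluorescence of the cells measured by high-throughput flow cytometry; test concentration not given here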
MEASUREMENT PARAMETERS: S. cerevisiae GFP-tagged strains, 3 h
PROPERTY: GFP ratio to DMSO
Provide a numeric answer; units are not to be included.

Q: Answer with the recorded GFP ratio to DMSO for the compound listed here: CNc1nc(N)c([N+](=O)[O-])c(Nc2ccccc2OC)n1
A: 0.645

Q: Annotate the compound CNc1nc(N)c([N+](=O)[O-])c(Nc2ccccc2)n1 with its measured GFP ratio to DMSO.
A: 0.91

Q: Supply reported GFP ratio to DMSO belonging to this compound: CO[C@H]1C[C@@H]2CC[C@@H](C)[C@@](O)(O2)C(=O)C(=O)N2CCCC[C@H]2C(=O)O[C@H]([C@H](C)C[C@@H]2CC[C@@H](O)[C@H](OC)C2)CC(=O)[C@H](C)/C=C(\C)[C@@H](O)[C@@H](OC)C(=O)[C@H](C)C[C@H](C)/C=C/C=C/C=C/1C
A: 3.23

Q: Provide measured GFP ratio to DMSO value, entry: CNc1nc(N)c([N+](=O)[O-])c(Nc2cccc(Cl)c2)n1
A: 0.91

Q: Annotate the compound CNc1nc(N)c([N+](=O)[O-])c(Nc2cccc(F)c2)n1 with its measured GFP ratio to DMSO.
A: 2.27
